Molecular target: T1, Human CD3eg linker (human)
T1 construct: Single-chain construct; also called recombinant human CD3
T1 chain: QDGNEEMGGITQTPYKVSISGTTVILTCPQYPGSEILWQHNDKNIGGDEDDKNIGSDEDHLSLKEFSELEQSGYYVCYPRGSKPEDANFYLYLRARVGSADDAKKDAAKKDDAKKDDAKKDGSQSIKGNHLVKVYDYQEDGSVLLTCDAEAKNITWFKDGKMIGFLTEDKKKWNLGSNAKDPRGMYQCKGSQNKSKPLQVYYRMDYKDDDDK
Experiment: SPR; fold vs parent H183/L072
Listing of entries alongside the reported fold change of affinity.
Readout: fold change of affinity (fold)

{"Binder": "H183/L072 VL V94P (antibody, name in Kabat numbering, V domains shown) VH: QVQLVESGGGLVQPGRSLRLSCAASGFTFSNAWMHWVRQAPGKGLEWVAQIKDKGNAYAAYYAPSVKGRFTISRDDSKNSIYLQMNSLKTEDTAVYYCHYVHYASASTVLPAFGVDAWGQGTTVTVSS VL: DIVMTQSPLSLPVTPGEPASISCQASQELVHMNRNTYLHWYQQKPGQAPRLLIYKVSNRFPGVPDRFSGSGSGTDFTLKISRVEAEDVGVYYCAQGTSPPFTFGQGTKLEIK", "Number": 1.5}
{"Binder": "H183/L072 VL S52K (antibody, name in Kabat numbering, V domains shown) VH: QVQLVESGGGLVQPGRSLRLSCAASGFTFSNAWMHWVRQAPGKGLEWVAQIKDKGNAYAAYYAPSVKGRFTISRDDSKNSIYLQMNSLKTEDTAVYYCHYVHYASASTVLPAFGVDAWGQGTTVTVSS VL: DIVMTQSPLSLPVTPGEPASISCQASQELVHMNRNTYLHWYQQKPGQAPRLLIYKVKNRFPGVPDRFSGSGSGTDFTLKISRVEAEDVGVYYCAQGTSVPFTFGQGTKLEIK", "Number": 1.9}
{"Binder": "H183/L072 VL T97V (antibody, name in Kabat numbering, V domains shown) VH: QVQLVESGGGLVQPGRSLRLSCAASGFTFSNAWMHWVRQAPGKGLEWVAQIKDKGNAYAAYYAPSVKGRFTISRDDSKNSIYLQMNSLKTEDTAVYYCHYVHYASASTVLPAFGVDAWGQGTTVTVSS VL: DIVMTQSPLSLPVTPGEPASISCQASQELVHMNRNTYLHWYQQKPGQAPRLLIYKVSNRFPGVPDRFSGSGSGTDFTLKISRVEAEDVGVYYCAQGTSVPFVFGQGTKLEIK", "Number": 0.6}
